Measured values drawn from patent US6528528B2 for this set.

Molecular target: rabbit reticulocyte 15-LO (Oryctolagus cuniculus, UniProt P12530)
Construct: Fifteen-lipoxygenase was obtained from phenylhydrazine-treated rabbits and purified per the method of Rapoport; from tissue; host or cells: reticulocytes of phenylhydrazine-treated rabbits
Sequence (P12530 1-663): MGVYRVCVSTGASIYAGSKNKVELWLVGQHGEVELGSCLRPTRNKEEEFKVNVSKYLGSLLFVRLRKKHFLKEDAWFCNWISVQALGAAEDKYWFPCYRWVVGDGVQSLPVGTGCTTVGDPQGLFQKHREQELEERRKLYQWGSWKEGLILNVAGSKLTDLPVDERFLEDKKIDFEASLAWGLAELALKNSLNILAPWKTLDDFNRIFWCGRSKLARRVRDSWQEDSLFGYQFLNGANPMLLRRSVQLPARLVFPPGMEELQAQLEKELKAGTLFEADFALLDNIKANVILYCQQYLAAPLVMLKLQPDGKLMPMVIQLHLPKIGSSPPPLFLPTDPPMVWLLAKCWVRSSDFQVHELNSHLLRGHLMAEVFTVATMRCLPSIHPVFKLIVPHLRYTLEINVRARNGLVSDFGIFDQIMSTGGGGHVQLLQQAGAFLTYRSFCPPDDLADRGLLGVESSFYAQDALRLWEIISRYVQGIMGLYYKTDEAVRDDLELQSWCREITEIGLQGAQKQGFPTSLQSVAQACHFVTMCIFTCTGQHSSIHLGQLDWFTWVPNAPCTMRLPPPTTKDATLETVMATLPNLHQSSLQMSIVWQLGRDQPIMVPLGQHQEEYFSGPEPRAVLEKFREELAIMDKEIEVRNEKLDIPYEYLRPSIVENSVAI
Assay: Rabbit Reticulocyte 15-LO Assay (h15LO)
Type: biochemical
Conditions: Table 2; 2U rabbit reticulocyte 15-LO, 174 μM linoleic acid, 15 minutes at 4° C.
Quick list: IC50 per entry.
MEASURE_NAME: IC50

[[record]]
structure_as_smiles = "Cc1ccc(C(=O)Nc2ccccc2)cc1NC(=S)Nc1cc(Cl)cc(Cl)c1"
measure_name = "IC50"
test_value = "526 nM"

[[record]]
structure_as_smiles = "COc1ccc(C(=O)Nc2ccccc2)cc1NS(=O)(=O)c1ccc(F)cc1"
measure_name = "IC50"
test_value = "28 nM"

[[record]]
structure_as_smiles = "COc1ccc(C(=O)Nc2ccc(F)c(F)c2)cc1NCc1cccs1"
measure_name = "IC50"
test_value = "35 nM"

[[record]]
structure_as_smiles = "COc1ccc(C(=O)Nc2ccccc2)cc1NCc1ccc(F)c(F)c1"
measure_name = "IC50"
test_value = "391 nM"

[[record]]
structure_as_smiles = "COc1ccc(C(=O)Nc2ccccc2)cc1NCc1ccccc1"
measure_name = "IC50"
test_value = "846 nM"

[[record]]
structure_as_smiles = "COc1ccc(C(=O)Nc2ccccc2)cc1NS(=O)(=O)c1ccc(NC(C)=O)cc1"
measure_name = "IC50"
test_value = "104 nM"

[[record]]
structure_as_smiles = "O=C(Nc1ccccc1)c1cccc(Nc2cc(Cl)cc(Cl)c2)c1"
measure_name = "IC50"
test_value = "1600 nM"

[[record]]
structure_as_smiles = "COc1ccc(C(=O)Nc2ccccc2)cc1NS(=O)(=O)c1ccc(C(=O)O)cc1"
measure_name = "IC50"
test_value = "293 nM"

[[record]]
structure_as_smiles = "COc1ccc(C(=O)Nc2ccccc2)cc1NC(=S)Nc1ccc(Cl)cc1"
measure_name = "IC50"
test_value = "42 nM"

[[record]]
structure_as_smiles = "COc1ccc(C(=O)Nc2ccccc2)cc1NCc1cccc(O)c1"
measure_name = "IC50"
test_value = "79 nM"

[[record]]
structure_as_smiles = "COc1ccc(C(=O)Nc2ccccc2)cc1NC(=S)Nc1ccc(C)cc1"
measure_name = "IC50"
test_value = "32 nM"

[[record]]
structure_as_smiles = "COc1ccc(C(=O)Nc2ccccc2)cc1NC(=S)NC(=O)c1ccccc1"
measure_name = "IC50"
test_value = "10000 nM"

[[record]]
structure_as_smiles = "COc1ccc(C(=O)Nc2ccc(Cl)c(Cl)c2)cc1Nc1cccc(C(F)(F)F)c1"
measure_name = "IC50"
test_value = "100 nM"

[[record]]
structure_as_smiles = "COc1ccc(C(=O)Nc2ccccc2)cc1NC(=S)Nc1cccc(C)c1"
measure_name = "IC50"
test_value = "11 nM"

[[record]]
structure_as_smiles = "COc1ccc(C(=O)Nc2ccccc2)cc1NS(=O)(=O)c1cc(Br)c(Br)s1"
measure_name = "IC50"
test_value = "48 nM"

[[record]]
structure_as_smiles = "COc1ccc(C(=O)Nc2ccccc2)cc1NC(=S)Nc1ccc(Cl)c(C(F)(F)F)c1"
measure_name = "IC50"
test_value = "16 nM"

[[record]]
structure_as_smiles = "COc1ccc(C(=O)Nc2ccccc2)cc1NS(=O)(=O)c1ccc(F)cc1F"
measure_name = "IC50"
test_value = "151 nM"

[[record]]
structure_as_smiles = "COc1ccc(C(=O)Nc2ccccc2)cc1NC(=S)Nc1cc(C)cc(C)c1"
measure_name = "IC50"
test_value = "11 nM"

[[record]]
structure_as_smiles = "CCOc1ccc(C(=O)Nc2ccccc2)cc1NC(=S)Nc1cc(Cl)cc(Cl)c1"
measure_name = "IC50"
test_value = "39 nM"

[[record]]
structure_as_smiles = "CCCCCCCCCCS(=O)(=O)Nc1cc(C(=O)Nc2ccccc2)ccc1OC"
measure_name = "IC50"
test_value = "7 nM"

[[record]]
structure_as_smiles = "COc1ccc(C(=O)Nc2ccccc2)cc1NC(=S)Nc1ccc(C(=O)O)cc1"
measure_name = "IC50"
test_value = "104 nM"

[[record]]
structure_as_smiles = "COc1ccc(NC(=O)c2ccc(F)c(F)c2)cc1NC(=S)Nc1ccc(C(=O)O)cc1"
measure_name = "IC50"
test_value = "109 nM"

[[record]]
structure_as_smiles = "COc1ccc(C(=O)Nc2ccc(F)c(F)c2)cc1NCc1cccc(F)c1"
measure_name = "IC50"
test_value = "69 nM"

[[record]]
structure_as_smiles = "COc1ccc(S(=O)(=O)Nc2cc(C(=O)Nc3ccccc3)ccc2OC)cc1"
measure_name = "IC50"
test_value = "25 nM"

[[record]]
structure_as_smiles = "COc1ccc(C(=O)Nc2ccccc2)cc1CNS(=O)(=O)c1cc(Cl)cc(Cl)c1"
measure_name = "IC50"
test_value = "58 nM"

[[record]]
structure_as_smiles = "COc1ccc(C(=O)Nc2ccccc2)cc1NS(=O)(=O)c1ccccc1"
measure_name = "IC50"
test_value = "40 nM"

[[record]]
structure_as_smiles = "COc1ccc(NC(=O)c2ccc(Cl)c(Cl)c2)cc1Nc1cccc(C(F)(F)F)c1"
measure_name = "IC50"
test_value = "119 nM"

[[record]]
structure_as_smiles = "COc1ccc(NC(=O)c2ccc(OC)c(NC(=S)Nc3cc(Cl)cc(Cl)c3)c2)cc1"
measure_name = "IC50"
test_value = "127 nM"

[[record]]
structure_as_smiles = "COc1ccc(C(=O)Nc2ccccc2)cc1NS(=O)(=O)C(C)C"
measure_name = "IC50"
test_value = "232 nM"

[[record]]
structure_as_smiles = "COc1ccc(C(=O)Nc2ccccc2)cc1NCc1cccc(F)c1F"
measure_name = "IC50"
test_value = "166 nM"

[[record]]
structure_as_smiles = "COc1ccc(C(=O)Nc2ccccc2)cc1NC(=S)Nc1ccc(C(C)(C)C)cc1"
measure_name = "IC50"
test_value = "41 nM"

[[record]]
structure_as_smiles = "COc1ccc(C(=O)Nc2ccccc2)cc1NC(=S)Nc1cccc([N+](=O)[O-])c1"
measure_name = "IC50"
test_value = "7 nM"

[[record]]
structure_as_smiles = "COc1ccc(C(=O)Nc2ccccc2)cc1NS(=O)(=O)c1cccc(Cl)c1"
measure_name = "IC50"
test_value = "31 nM"

[[record]]
structure_as_smiles = "COc1ccc(C(=O)Nc2ccccc2)cc1NCc1cccc(F)c1"
measure_name = "IC50"
test_value = "89 nM"

[[record]]
structure_as_smiles = "COc1ccc(C(=O)Nc2ccccc2)cc1NCc1cccc(C(F)(F)F)c1"
measure_name = "IC50"
test_value = "221 nM"


* * *

MEASURE_NAME: melting point

[[record]]
compound = "COc1ccc(C(=O)Nc2ccccc2)cc1NC(=S)Nc1cccc([N+](=O)[O-])c1"
test_value = "188 to 189 °C"

[[record]]
compound = "COc1ccccc1Nc1cc(C(=O)Nc2ccccc2)ccc1OC"
test_value = "155 to 156 °C"

[[record]]
compound = "COc1ccccc1Nc1cccc(C(=O)Nc2ccccc2)c1"
test_value = "153 to 154 °C"

[[record]]
compound = "COc1ccc(C(=O)Nc2ccc(C)cc2)cc1NC(=S)Nc1cc(Cl)cc(Cl)c1"
test_value = "178 to 180 °C"

[[record]]
compound = "Nc1cc(NC(=O)c2ccc(Cl)c(Cl)c2)ccc1F"
test_value = "151 to 153 °C"

[[record]]
compound = "COc1ccc(C(=O)Nc2cccc(Cl)c2)cc1N"
test_value = "144 to 146 °C"

[[record]]
compound = "COc1ccc(C(=O)Oc2ccccc2)cc1Nc1ccccc1"
test_value = "130 to 131 °C"

[[record]]
compound = "COc1ccc(C(=O)Nc2ccccc2)cc1NC(=S)Nc1c(F)c(F)cc(F)c1F"
test_value = "170 to 174 °C"

[[record]]
compound = "COc1ccc(C(=O)Nc2ccccc2)cc1NC(=O)C(O)c1ccccc1 (stereo not drawn)"
test_value = "173 to 175 °C"

[[record]]
compound = "COc1ccc(NC(=O)Nc2ccccc2)cc1NC(=S)Nc1cc(Cl)cc(Cl)c1"
test_value = "218 to 219 °C"

[[record]]
compound = "O=C(Nc1ccccc1)c1ccc(F)c(Nc2ccccc2)c1"
test_value = "132 to 133 °C"

[[record]]
compound = "COc1ccc(C(=O)Nc2ccccc2)cc1NC(=S)Nc1ccc(S(=O)(=O)O)cc1"
test_value = "> 280 °C"

[[record]]
compound = "COc1ccc(C(=O)Nc2ccccc2)cc1NS(=O)(=O)c1cccc(C)c1"
test_value = "195 to 197 °C"

[[record]]
compound = "COc1ccc(C(=O)Nc2cc(C)cc(C)c2)cc1N"
test_value = "155 to 162 °C"

[[record]]
compound = "CCOc1ccc(C(=O)Nc2ccccc2)cc1NC(=S)Nc1cc(Cl)cc(Cl)c1"
test_value = "201 to 202 °C"

[[record]]
compound = "COc1ccc(C(=O)Nc2ccccc2)cc1Nc1ccc(C2=NC(C)(C)CO2)cc1"
test_value = "221 to 222 °C"

[[record]]
compound = "COc1ccc(C(=O)Nc2ccccc2)cc1NCc1ccccc1"
test_value = "164 to 165 °C"

[[record]]
compound = "COc1ccc(C(=O)Nc2ccccc2)cc1Oc1ccccc1 [Example 54, 3-Phenoxy-4-methoxy-N-phenyl-benzamide]"
test_value = "200 to 201 °C"

[[record]]
compound = "CCOc1ccc(C(=O)Nc2ccccc2)cc1N [Example 10, 3-Amino-4-ethoxy-N-phenyl-benzamide]"
test_value = "189 to 190 °C"

[[record]]
compound = "CCc1ccc(C(=O)Nc2ccc(Cl)c(Cl)c2)cc1N"
test_value = "115 to 117 °C"

[[record]]
compound = "COc1ccc(C(=O)Nc2ccccc2)cc1Nc1cccc(C)c1"
test_value = "160 to 161 °C"

[[record]]
compound = "Cc1ccc(C(=O)Nc2ccccc2)cc1NC(=S)Nc1cc(Cl)cc(Cl)c1"
test_value = "182 to 184 °C"

[[record]]
compound = "CCS(=O)(=O)Nc1cc(C(=O)Nc2ccccc2)ccc1OC"
test_value = "175 to 177 °C"

[[record]]
compound = "COc1ccc(C(=O)Nc2cccnc2)cc1NC(=S)Nc1ccc(Cl)c(Cl)c1"
test_value = "179 to 180 °C"

[[record]]
compound = "COc1ccc(C(=O)Nc2ccccc2)cc1NC(=S)Nc1cccc(C(C)=O)c1"
test_value = "176 to 177 °C"

[[record]]
compound = "COc1ccc(C(=O)Nc2ccccc2)cc1NS(=O)(=O)c1sc(NC(C)=O)nc1C"
test_value = "260 to 261 °C"

[[record]]
compound = "O=C(Nc1ccc(F)cc1)c1ccc(OC(F)(F)F)c(NC(=S)Nc2cc(Cl)cc(Cl)c2)c1"
test_value = "165 to 166 °C"

[[record]]
compound = "COc1ccc(C(=O)Nc2cccnc2)cc1N"
test_value = "193 to 196 °C"

[[record]]
compound = "COc1ccc(NC(=O)c2ccc(Cl)c(Cl)c2)cc1NC(=S)Nc1cc(Cl)cc(Cl)c1"
test_value = "183 to 186 °C"

[[record]]
compound = "COc1ccc(C(=O)Nc2ccccc2)cc1NS(=O)(=O)c1ccc(NC(C)=O)cc1"
test_value = "250 to 251 °C"

[[record]]
compound = "O=C(Nc1ccccc1)c1cccc(Nc2ccccc2)c1 [Example 25, 3-Phenylamino-N-phenyl-benzamide]"
test_value = "134 to 135 °C"

[[record]]
compound = "COc1ccc(C(=O)Nc2ccccc2)cc1NC(=S)Nc1ccccc1"
test_value = "174 to 176 °C"

[[record]]
compound = "COc1ccc(S(=O)(=O)Nc2cc(C(=O)Nc3ccccc3)ccc2OC)cc1"
test_value = "184 to 186 °C"

[[record]]
compound = "Nc1cc(C(=O)Nc2ccccc2)ccc1Cl [Example 13, 3-Amino-4-chloro-N-phenyl-benzamide]"
test_value = "194 to 197 °C"

[[record]]
compound = "COc1ccc(C(=O)Nc2ccc(F)c(F)c2)cc1Nc1cccc(C(F)(F)F)c1"
test_value = "166 to 169 °C"

[[record]]
compound = "COc1ccc(C(=O)Nc2ccc(Cl)c(Cl)c2)cc1NS(=O)(=O)c1cc(Cl)cc(Cl)c1"
test_value = "> 230 °C (dec.)"

